Please go through the items and note down their pEC50.
- TESTED_TARGET: T1, monkey CEA expressed on CHO cell surface (cynomolgus monkey)
- T1 construct: also called cynoCEA-CHO; monkey CEA proteins on the cell surface
- T1 chain: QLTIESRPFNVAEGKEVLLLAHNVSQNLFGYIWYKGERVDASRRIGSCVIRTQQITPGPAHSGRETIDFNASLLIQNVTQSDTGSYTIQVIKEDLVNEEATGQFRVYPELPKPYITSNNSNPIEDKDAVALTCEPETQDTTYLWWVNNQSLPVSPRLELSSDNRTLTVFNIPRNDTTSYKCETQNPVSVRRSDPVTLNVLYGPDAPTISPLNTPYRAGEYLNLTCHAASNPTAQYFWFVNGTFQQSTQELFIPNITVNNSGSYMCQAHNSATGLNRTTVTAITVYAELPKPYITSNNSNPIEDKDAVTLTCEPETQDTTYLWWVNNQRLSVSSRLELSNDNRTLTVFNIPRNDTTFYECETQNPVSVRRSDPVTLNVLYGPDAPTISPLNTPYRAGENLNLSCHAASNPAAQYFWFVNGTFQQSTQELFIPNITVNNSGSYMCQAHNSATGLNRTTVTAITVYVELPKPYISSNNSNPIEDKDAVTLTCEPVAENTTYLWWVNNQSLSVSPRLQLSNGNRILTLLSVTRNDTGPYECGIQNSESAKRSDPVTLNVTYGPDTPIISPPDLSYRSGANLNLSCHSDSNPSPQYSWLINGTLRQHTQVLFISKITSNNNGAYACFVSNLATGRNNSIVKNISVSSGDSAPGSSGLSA
- PROTOCOL_DESCRIPTION: FACS, cynoCEA-CHO cells
// pEC50 is dimensionless: -log10 of concentration (M)

Would you kindly share the measured pEC50 for antibody in SAR-408701 (antibody, human IgG1, kappa, V domains shown, Positive control antibody; also called Sanofi) VH: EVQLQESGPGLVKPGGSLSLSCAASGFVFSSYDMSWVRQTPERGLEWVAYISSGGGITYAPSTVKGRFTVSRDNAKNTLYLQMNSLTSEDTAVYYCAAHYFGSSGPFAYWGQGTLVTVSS VL: DIQMTQSPASLSASVGDRVTITCRASENIFSYLAWYQQKPGKSPKLLVYNTRTLAEGVPSRFSGSGSGTDFSLTISSLQPEDFATYYCQHHYGTPFTFGSGTKLEIKR ? 7.76

What about this binder? Hu67-9 (antibody, human IgG1, kappa, V domains shown) VH: EVQLVQSGAEVKKPGESLKISCKGSGYSFTDYHMNWVRQMPGKGLEWMGDINPDIGGTSYNQNFKGQVTISADKSISTAYLQWSSLKASDTAMYYCARWDFDSFANWGQGTLVTVSS VL: DIQMTQSPSSLSASVGDRVTITCRASESVSIIGTNLIHWYQQKPGKAPKLLIYHASNLETGVPSRFSGSGSGTDFTLTISSLQPEDFATYYCLQSRKIPYTFGGGTKVEIKR 8.43
